protocol details: growth suppression of beta-catenin knockout HCT116, pilot screen, human colon tumor cells (AID 823);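 further: 0% = wells killed by 20 µM Hyamine and 100% = untreated DMSO cell wells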
run conditions: CellTiter-Glo, 60 h, at 10 µM, stronger effect = lower value
Results filed as inconclusive are left out.
Give viability for every item shown.
Give bare numbers, in %.

Previously resolved entries follow.
CN1CCCCc2c1[nH]c1ccccc1c2=O    95.8
CN1CCc2c(sc3nc(SCC(=O)N4CCOCC4)nc(N)c23)C1    95.1
Oc1c(C(c2cccs2)N2CCN(c3ccccc3)CC2)sc2ncnn12 (stereo not given)    90.9

Look at each molecule and report its viability.
1. CC1(C)OC(=O)C(=C2CCCN2)C(=O)O1
2. CCC1(C)OC(=O)N2CCc3c(C)[nH]c4c(C)ccc(c34)C21C (stereo not given)

Output:
1: 105; 2: 95.9

###

protocol details: growth suppression of beta-catenin knockout HCT116, pilot screen, human colon tumor cells (AID 823);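 further: 0% = wells killed by 20 µM Hyamine and 100% = untreated DMSO cell wells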
run conditions: CellTiter-Glo, 60 h, at 10 µM, stronger effect = lower value
Results filed as inconclusive are left out.
Give viability for every item shown.
Give bare numbers, in %.

Previously resolved entries follow.
COc1ccc(NC(=O)c2cc3ccccn3n2)cc1    81
CCOc1ccc(OCC)c(S(=O)(=O)NCc2ccc3c(c2)OCO3)c1    95.1
Cc1cccc(OCc2nnc(SCC(=O)Nc3ccc(C)c(C)c3)o2)c1    102
COc1ccc(-n2nnc3c(=O)n(CC(=O)N4CCC(Cc5ccccc5)CC4)cnc32)cc1    80.2
c1cnc(N2CCSCC2)nc1    104

Look at each molecule and report its viability.
1. CCn1c(=NC(=O)c2ccc(N3C(=O)CCC3=O)cc2)sc2c(OC)ccc(OC)c21
2. COc1ccc(OC)c(NC(=O)c2cnc3n(c2=O)CCS3)c1
3. O=C(COc1ccc(S(=O)(=O)NC2CCCCC2)cc1)N1CCN(c2ccc(F)cc2)CC1

Output:
1: 97.9; 2: 100; 3: 65.5

Look at each molecule and report its viability.
1. CN=C1SC(CC(=O)Nc2ccccc2F)C(=O)N1C (stereo unspecified)
2. Cn1c(SCC(=O)Nc2ccc(F)cc2F)nnc1-c1cccnc1
3. COc1cccc(NC(=O)c2ccncc2)c1
4. O=C(CCn1c(=O)sc2ccccc21)NCCN1CCOCC1
5. Cc1cccn2c(=O)c(C=NCc3ccco3)c(Nc3ccc(Cl)cc3)nc12

Output:
1. 112
2. 104
3. 94.3
4. 101
5. 79.7

###

protocol details: reversal of MRP1-mediated doxorubicin resistance, pilot screen, H69AR cells, doxorubicin co-treatment (AID 601)
run conditions: H69AR cells + 2 uM doxorubicin, CellTiter-Glo, 72 h; measured here: viability with 2 uM doxorubicin; at 10 µM; stronger effect = lower value
Lab note - cut at 90% for viability: YES if strictly below, NO if not.

Cc1cc(Cl)ccc1OCCCC(=O)NO    YES
O=C(Nc1cccc(F)c1)c1ccc2c(c1)OCO2    YES
COc1ccc(OC)c(C(=O)CSc2nnc(-c3ccc(OC)c(OC)c3)o2)c1    YES
Cc1ncc([N+](=O)[O-])n1CCO    NO
O=C(c1cn(-c2ccccc2)nc1-c1cccs1)N1CCN(c2ccccn2)CC1    YES

Input: Below 90% on viability? Entry CCOc1ccccc1C(=O)NC(C)c1ccc2c(c1)OCO2 (stereo unspecified)
Output: YES

Input: Okay, and "Cc1cc(C)c(C)c(S(=O)(=O)Nc2ccc(O)cc2)c1C" ?
Output: YES

Input: Okay, and "C[C@]12CC[C@@H]3c4ccc(O)cc4CC[C@H]3[C@@H]1CC[C@@H]2OC(=O)CCC(=O)O" ?
Output: NO

Values compiled from PubChem BioAssay.
